test system: OVCAR-4 ovarian; assay: NCI tumour cell line growth inhibition, 48 h
As shown below, each of these compounds has a reported GI50 value.

compound: CN1CCCN(C(c2ccccc2)c2ccc(Br)cc2)CC1 (stereo not drawn)
GI50: 7.63 µM
//
compound: CCN1CCN(C(=O)[C@]23CCC(C)(C)C[C@@H]2C2=CC[C@@H]4[C@@]5(C)C/C(=C/c6cccnc6)C(=O)C(C)(C)[C@@H]5CC[C@@]4(C)[C@]2(C)CC3)CC1
GI50: 2.17 µM
//
compound: CC[C@]12CCCN3CC[C@]4(C(=C(C(=O)OC)C1)Nc1ccccc14)[C@@H]32
GI50: 15.4 µM

----------
system: MALME-3M melanoma; assay: NCI tumour cell line growth inhibition, 48 h

compound: COc1cc(C2C(C#N)=C(N)Oc3cc(O)ccc32)cc(OC)c1OC (stereo not drawn)
system: MALME-3M melanoma
TGI: > 100 µM
//
compound: CC[C@@]1(O)C(=O)OCc2c1cc1n(c2=O)Cc2c-1nc1ccccc1c2/C=N\NC(=O)C(C)N (stereo partly drawn)
system: MALME-3M melanoma
TGI: > 91.9 µM
//
compound: Nc1c(C(=O)Nc2ccccc2)sc2nc3c(cc12)CCCC3
system: MALME-3M melanoma
TGI: 95.2 µM
//
compound: O=C1c2cccnc2C(=O)c2c1c(C(=O)OCCN1CCOCC1)c1ccccn21
system: MALME-3M melanoma
TGI: 0.985 µM
//
compound: C[n+]1ccc(-c2c3nc(c(-c4ccc5c(ccc[n+]5C)c4)c4ccc([nH]4)c(-c4cc[n+](C)cc4)c4nc(c(-c5ccc6c(ccc[n+]6C)c5)c5ccc2[nH]5)C=C4)C=C3)cc1
system: MALME-3M melanoma
TGI: > 50 µM
//
compound: CC(Oc1ccc2cc(C(=O)c3ccccc3)c(=O)oc2c1)C(=O)O (stereo not drawn)
system: MALME-3M melanoma
TGI: > 100 µM
//
compound: COc1ccc(/C(C)=N/NC(N)=S)c(OC)c1
system: MALME-3M melanoma
TGI: > 100 µM
//
compound: CC(O[Si](C)(C)C)C1C=CC(C)n2c(=O)n(-c3ccccc3)c(=O)n21 (stereo not drawn)
system: MALME-3M melanoma
TGI: > 100 µM
//
compound: O=C1O[C@H]2[C@@H]3OC(=O)c4cc(O)c(O)c(O)c4-c4c(cc(O)c(O)c4O)C(=O)OC[C@H]2O[C@@H](OC(=O)c2cc(O)c(O)c(O)c2)[C@@H]3OC(=O)c2cc(O)c(O)c3c2[C@@H]2C1=CC(=O)C(O)(O)C2(O)O3 (stereo partly drawn)
system: MALME-3M melanoma
TGI: > 100 µM
//
compound: COc1ccc(CC2C3=C(CCCC3)CCN2C)cc1 (stereo not drawn)
system: MALME-3M melanoma
TGI: > 100 µM
//
compound: CN(C)/C=N/c1nc2ncn(CCOC(=O)c3ccccc3)c2c(=O)[nH]1
system: MALME-3M melanoma
TGI: > 100 µM
//
compound: COc1ccc(-c2nnc(CCCCCCCCc3nnc(-c4ccc(OC)cc4)o3)o2)cc1
system: MALME-3M melanoma
TGI: > 100 µM
//
compound: Cc1cc2c(cc1C)[n+](=O)c(C(=O)/C=C/c1ccccc1Cl)c(C)n2[O-]
system: MALME-3M melanoma
TGI: 94.5 µM
//
compound: CCOC1SC(SC)=NN1C(=O)C(OC(C)=O)C(OC(C)=O)C(OC(C)=O)C(OC(C)=O)C(=O)N1N=C(SC)SC1OCC (stereo not drawn)
system: MALME-3M melanoma
TGI: > 100 µM
//
compound: N#CC1=C(c2ccccc2)C(O)(c2ccccc2)NC1=O (stereo not drawn)
system: MALME-3M melanoma
TGI: 74 µM
//
compound: COC(=O)NN1C(=O)C(=P(c2ccccc2)(c2ccccc2)c2ccccc2)C(C(=O)OC)=C1C
system: MALME-3M melanoma
TGI: > 100 µM
//
compound: CC1Cc2cc(O)ccc2C2[C@@H]1C1CC[C@H](O)[C@@]1(C)C[C@@H]2O[N+](=O)[O-] (stereo partly drawn)
system: MALME-3M melanoma
TGI: > 79.6 µM
//
compound: CP(C)(=S)P(C)(C)=S
system: MALME-3M melanoma
TGI: > 100 µM
